For each of the binders below, state its EC50, pseudovirus neutralization (mAb mixed with irrelevant isotype matched mAb M2).
target: BK virus VP1 protein, genotype II (BK virus); assay: cell-based or functional assay
Field: numeric (nM). Do not append units.

// lookup EC50, pseudovirus neutralization (mAb mixed with irrelevant isotype matched mAb M2) for 9G9 (antibody, V domains shown) VH: EVQLLESGGGLVQPGGSLRLSCAASGFTFHNYAMSWVRQAPGKGLEWVSGISGSGGTAYYADSVKGRFTISRDNSKNTLYLQMNSLRADDTALYYCAKDRFLEWVEGFDSWGQGTLVTVSS VL: DIQMTQSPSSLSASVGDRVTITCRASQSIGSFLIWYQQKPGKAPKLLIYAASSLQSGVPSRFSGSGSGTDFTLIISSLQPEDFATYYCQQSYNTPLTFGGGTKVEIK
0.0023

// lookup EC50, pseudovirus neutralization (mAb mixed with irrelevant isotype matched mAb M2) for 6H12 (antibody, V domains shown) VH: EVQLVESGGGLVQPGGSLRLSCAASGFTFSSYEMNWVRQAPGKGLEWVSYISSGGSSIKYADSVRGRFAFSRDNAENSVHLQMNSLRAEDTAVYYCARVGGSYYYSYAMDVWGQGTAVTVSS VL: DIQLTQSPSFLSASVGDRVTITCWASQDISSYLAWYQQKPGKAPKLLIYAASTLQSGVPSRFTGSGSGTEFTLTISSLQPEDFATYYCQQPHNSPFSFGPGTKVDVK
0.0024

// lookup EC50, pseudovirus neutralization (mAb mixed with irrelevant isotype matched mAb M2) for 2A10 (antibody, V domains shown) VH: EVQLVQSGAEVKKPGESLKISCKGSGYSFTYYWIGWVRQMPGKGLEWMGIIYPGDSDTRYSPSFQGQVTISADKSISTAYLQWSSLKASDTAMYYCTTHARNWNNVAYWGQGTLVTVSS VL: DIQMTQSPSSLSASVGDRLTITCRASQNINTFLNWYQQNPGKAPKVLIYAASSLESGVPSRFSGSGSGTDFTLTISSLQPEDFATYYCQQSSSTPWTFGQGTKVEIK
0.0112

// lookup EC50, pseudovirus neutralization (mAb mixed with irrelevant isotype matched mAb M2) for 2F11 (antibody, V domains shown) VH: EVQLVQSGAEVKKPGESLKISCKGSGYSFTNYWIGWVRQMPGKGLEWMGIIYPGDSDTRYSPSFQGQVTLSADKSISTAYLQWNSLKASDTAMYYCATHARSWNYVAYWGQGTLVTVAS VL: DIQMTQSPSSLSASVGDRVTITCRASQSVNNFLNWYQQKPGTAPKLLIYAASSLQGGVPSRFSGSGSGTDFTLTISSLQPEDFATYYCQQSNTTPWTFGQGTKVEIK
0.148

These measurements were taken from patent US20250304658A1.
